# System: (HEPG2)
# condition-info: human, 24 h, 30 μM
measure: Cell Viability (% inhibition)
I only need the number, in % inhibition, no unit after it.

Some solved entries appear below for comparison.
molecule: COc1c(C)cc2c(c1O)[C@@H]1C3[C@@H]4SC[C@]5(NCCc6c5[nH]c5ccc(OCc7ccccc7)cc65)C(=O)COC[C@@H](c5c6c(c(C)c(OC(C)=O)c54)OCO6)N3[C@@H](O)[C@H](C2)N1C (stereo partly shown)
u: % inhibition
Cell Viability (% inhibition): 29

molecule: COc1c(C)cc2c(c1O)[C@@H]1C3[C@@H]4SC[C@]5(NC(C)Cc6c5[nH]c5ccc(F)cc65)C(=O)COC[C@@H](c5c6c(c(C)c(OC(C)=O)c54)OCO6)N3[C@@H](O)[C@H](C2)N1C (stereo partly shown) [Compound 41]
u: % inhibition
Cell Viability (% inhibition): 16

molecule: COc1c(C)cc2c(c1O)[C@@H]1C3[C@@H]4SC[C@]5(C(=O)COC[C@@H](c6c7c(c(C)c(OC(C)=O)c64)OCO7)N3[C@@H](O)[C@H](C2)N1C)c1[nH]c2ccc(O)cc2c1CCN5C (stereo partly shown)
u: % inhibition
Cell Viability (% inhibition): 32

Now turn to the next molecule.
Item: COc1c(C)cc2c(c1O)[C@@H]1C3[C@@H]4SC[C@]5(NCCc6c5[nH]c5c(OCc7ccccc7)cccc65)C(=O)COC[C@@H](c5c6c(c(C)c(OC(C)=O)c54)OCO6)N3[C@@H](O)[C@H](C2)N1C (stereo partly shown) | Cell Viability (% inhibition): 17

---

# Tested on: HT29
# assay-name: cells
# Format: cell-based
# condition-info: Homo sapiens, HT-29, 48 h, read-out: LC50, HT29, 48 hours exposure, SRB
measure: CC50 (nM)
The answer is to be given in nM; state only the numeric part.

molecule: COc1c(C)cc2c(c1O)[C@@H]1C3[C@@H]4SC[C@]5(C(=O)COC[C@@H](c6c7c(c(C)c(OC(C)=O)c64)OCO7)N3[C@@H](O)[C@H](C2)N1C)c1[nH]c2ccccc2c1CCN5C (some centres unmarked) [Compound 39]
measure: CC50
reported-value: 13000
//
molecule: COc1ccc2c3c([nH]c2c1)[C@@]1(CS[C@@H]2c4c(OC(C)=O)c(C)c5c(c4[C@H](COCC1=O)N1C2[C@H]2c4c(cc(C)c(OC)c4O)C[C@@H]([C@@H]1O)N2C)OCO5)NCC3 (some centres unmarked) [Compound 34]
measure: CC50
reported-value: 11.5
//
molecule: COc1c(C)cc2c(c1O)[C@@H]1C3[C@@H]4SC[C@]5(NCCc6c5[nH]c5ccc(O)cc65)C(=O)COC[C@@H](c5c6c(c(C)c(OC(C)=O)c54)OCO6)N3[C@@H](O)[C@H](C2)N1C (some centres unmarked) [Compound 31]
measure: CC50
reported-value: 13

Entry COc1ccc2[nH]c3c(c2c1)CCN[C@]31CS[C@@H]2c3c(OC(C)=O)c(C)c4c(c3[C@H](COCC1=O)N1C2[C@H]2c3c(cc(C)c(OC)c3O)C[C@@H]([C@@H]1O)N2C)OCO4 (some centres unmarked) [Compound 27] , CC50 reported as 1.15

CC50 reading for COc1c(C)cc2c(c1O)[C@@H]1C3[C@@H]4SC[C@]5(NCCc6c5[nH]c5c(OCc7ccccc7)cccc65)C(=O)COC[C@@H](c5c6c(c(C)c(OC(C)=O)c54)OCO6)N3[C@@H](O)[C@H](C2)N1C (some centres unmarked) [Compound 28] : 105

---

# GI50 annotations
# Test system: K562
# assay-name: cells
# Assay type: cell-based
# condition-info: Homo sapiens, K562, 48 h, K562, 48 hours exposure, SRB
Just the number in nM, nothing appended.

Examples from the recorded data:
compound: COc1c(C)cc2c(c1O)[C@@H]1C3[C@@H]4SC[C@]5(NCCc6c5[nH]c5ccccc65)C(=O)COC[C@@H](c5c6c(c(C)c(OC(=O)OC(C)(C)C)c54)OCO6)N3[C@@H](C#N)[C@H](C2)N1C (stereo partly shown) [Compound 57]
reported-value: 47.7

compound: COc1c(C)cc2c(c1O)[C@@H]1C3[C@@H]4SC[C@]5(NC(C)Cc6c5[nH]c5ccc(O)cc65)C(=O)COC[C@@H](c5c6c(c(C)c(OC(C)=O)c54)OCO6)N3[C@@H](O)[C@H](C2)N1C (stereo partly shown) [Compound 37]
reported-value: 0.492

compound: C=COC(=O)Oc1c(C)c2c(c3c1[C@H]1SC[C@]4(NCCC5c6ccccc6NC54)C(=O)OC[C@@H]3N3C1[C@H]1c4c(cc(C)c(OC)c4OC(=O)OC=C)C[C@@H]([C@@H]3C#N)N1C)OCO2 (stereo partly shown) [Compound 68]
reported-value: 20.4

compound: COc1c(C)cc2c(c1O)[C@@H]1C3[C@@H]4SC[C@]5(NCCc6c5[nH]c5c(C)cccc65)C(=O)COC[C@@H](c5c6c(c(C)c(OC(C)=O)c54)OCO6)N3[C@@H](O)[C@H](C2)N1C (stereo partly shown) [Compound 36]
reported-value: 6.15

compound: COc1c(C)cc2c(c1O)[C@@H]1C3[C@@H]4SC[C@]5(NCCc6c5[nH]c5ccc(F)cc65)C(=O)COC[C@@H](c5c6c(c(C)c(OC(C)=O)c54)OCO6)N3[C@@H](O)[C@H](C2)N1C (stereo partly shown) [Compound 35]
reported-value: 1.14

Documented GI50 of COc1c(C)cc2c(c1O)[C@@H]1C3[C@@H]4SC[C@]5(NCCc6c5[nH]c5ccccc65)C(=O)COC[C@@H](c5c6c(c(C)c(OC(=O)C(F)(F)C(F)(F)C(F)(F)F)c54)OCO6)N3[C@@H](C#N)[C@H](C2)N1C (stereo partly shown) [Compound 51] : 16.5

Note to self: GI50 recorded for COc1c(C)cc2c(c1O)[C@@H]1C3[C@@H]4SC[C@]5(C(=O)COC[C@@H](c6c7c(c(C)c(OC(C)=O)c64)OCO7)N3[C@@H](C#N)[C@H](C2)N1C)c1[nH]c2ccccc2c1CCN5C (stereo partly shown) [Compound 14] was 44.7

---

# System: IGROV-ET
# assay-name: cells
# Assay type: cell-based
# condition-info: read-out: LC50; IGROV-ET, 48 hours exposure, SRB
measure: CC50 (µM)
Record the value in µM, omitting the unit from your answer.

molecule: COc1c(C)cc2c(c1O)[C@@H]1C3[C@@H]4SC[C@]5(NC(C)Cc6c5[nH]c5ccc(O)cc65)C(=O)COC[C@@H](c5c6c(c(C)c(OC(C)=O)c54)OCO6)N3[C@@H](O)[C@H](C2)N1C (some centres unmarked)
CC50, µM: 6.51

Briefly, CC50 measured for COc1c(C)cc2c(c1O)[C@@H]1C3[C@@H]4SC[C@]5(C(=O)COC[C@@H](c6c7c(c(C)c(OC(C)=O)c64)OCO7)N3[C@@H](O)[C@H](C2)N1C)c1[nH]c2ccccc2c1CCN5C (some centres unmarked) [Compound 39] : 13

Documented CC50 of COc1c(C)cc2c(c1O)[C@@H]1C3[C@@H]4SC[C@]5(C(=O)COC[C@@H](c6c7c(c(C)c(OC(C)=O)c64)OCO7)N3[C@@H](O)[C@H](C2)N1C)c1[nH]c2ccccc2c1CCN5C (some centres unmarked) [Compound 40] : 4.8

Reported CC50 of COc1c(C)cc2c(c1O)[C@@H]1C3[C@@H]4SC[C@]5(NC(C)Cc6c5[nH]c5ccc(F)cc65)C(=O)COC[C@@H](c5c6c(c(C)c(OC(C)=O)c54)OCO6)N3[C@@H](O)[C@H](C2)N1C (some centres unmarked) [Compound 42] : 12.7

// COc1c(C)cc2c(c1O)[C@@H]1C3[C@@H]4SC[C@]5(NC(C)Cc6c5[nH]c5ccc(F)cc65)C(=O)COC[C@@H](c5c6c(c(C)c(OC(C)=O)c54)OCO6)N3[C@@H](O)[C@H](C2)N1C (some centres unmarked) [Compound 41] : CC50 value = 3.86

---

# Test system: L8, normal rat skeletal muscle cells
# condition-info: 24 h
measure: Skeletal
Answer as a number with no unit attached.

Some compounds with known Skeletal results, for comparison:
compound: C=COC(=O)Oc1c(OC)c(C)cc2c1[C@@H]1C3[C@@H]4SC[C@]5(NCCc6c5[nH]c5ccccc65)C(=O)COC[C@@H](c5c6c(c(C)c(OC(C)=O)c54)OCO6)N3[C@@H](O)[C@H](C2)N1C (some centres unmarked)
Skeletal: 2.57E−08
//
compound: COc1ccc2[nH]c3c(c2c1)CCN[C@]31CS[C@@H]2c3c(OC(C)=O)c(C)c4c(c3[C@H](COCC1=O)N1C2[C@H]2c3c(cc(C)c(OC)c3O)C[C@@H]([C@@H]1O)N2C)OCO4 (some centres unmarked)
Skeletal: 1.54E−08
//
compound: COc1c(C)cc2c(c1O)[C@@H]1C3[C@@H]4SC[C@]5(NC(C)Cc6c5[nH]c5ccc(O)cc65)C(=O)COC[C@@H](c5c6c(c(C)c(OC(C)=O)c54)OCO6)N3[C@@H](O)[C@H](C2)N1C (some centres unmarked) [Compound 37]
Skeletal: 2.22E−08

Per the record, COc1ccc2c3c([nH]c2c1)[C@@]1(CS[C@@H]2c4c(OC(C)=O)c(C)c5c(c4[C@H](COCC1=O)N1C2[C@H]2c4c(cc(C)c(OC)c4O)C[C@@H]([C@@H]1O)N2C)OCO5)NCC3 (some centres unmarked) has Skeletal of 1.48E−08

// COc1c(C)cc2c(c1O)[C@@H]1C3[C@@H]4SC[C@]5(NCCc6c5[nH]c5ccc(F)cc65)C(=O)COC[C@@H](c5c6c(c(C)c(OC(C)=O)c54)OCO6)N3[C@@H](O)[C@H](C2)N1C (some centres unmarked) : Skeletal value = 3.07E−08
